src = patent US11286228B2

Biological target: cyclophilin
Assay: Cis-trans isomerase inhibitory activity (chymotrypsin-coupled Suc-AAPF-pNA cleavage, absorbance 390 nm)
Format: biochemical
Settings: read-out: Test Example 1: cis-trans isomerase inhibitory activity (IC50) group
pIC50: −log10 of the molar value.
Listed next: entries and their corresponding pIC50.

CC(C)(C)Cc1ccc(C=Cc2c(O)cccc2C(=O)O)cc1	≥ 7.70
Cc1cccc(C(=O)O)c1C=Cc1ccc(CC(C)(C)C)cc1	≥ 7.70
CCCCOC(=O)c1ccncc1C=Cc1ccc(CC(C)(C)C)cc1	6.70 to 7.70
Cc1ccc(C(=O)O)c(C=Cc2ccc(CC(C)(C)C)cc2)c1	6.70 to 7.70
CC(C)(C)Cc1ccc(C=Cc2c(N)cccc2C(=O)O)cc1	≥ 7.70
CCCCOC(=O)c1cccnc1C=Cc1ccc(CC(C)(C)C)cc1	6.70 to 7.70
CC(C)(C)Cc1ccc(C=Cc2cc(N)ccc2C(=O)O)cc1	6.70 to 7.70

Let us move to another entry and its pIC50.
Query: Quick one: pIC50 for CC(C)(C)Cc1ccc(C=Cc2cc(O)ccc2C(=O)O)cc1 ?
Result: 6.70 to 7.70

----------
Biological target: cyclophilin
Test: Cis-trans isomerase inhibitory activity (chymotrypsin-coupled Suc-AAPF-pNA cleavage, absorbance 390 nm)
Type: biochemical
Conditions: cyclophilin, chymotrypsin, Suc-AAPF-pNA; read-out: Test Example 1: cis-trans isomerase inhibitory activity (IC50)
endpoint_name: IC50

CCCCOC(=O)c1cc(C)ccc1C=C(C)c1ccc(CC(C)(C)C)cc1	20 to 200 nM
CCCCOC(=O)c1ccccc1C=C(N)c1ccc(CC(C)(C)C)cc1C	20 to 200 nM
CC(=Cc1ccccc1C(=O)OCC1CCCCC1)c1ccc(CC(C)(C)C)cc1	20 to 200 nM
N#CC(=Cc1ccccc1CCc1ccccc1Cl)c1ccc([N+](=O)[O-])cc1	20 to 200 nM
CN1CCN(c2ccccc2C=C(C#N)c2ccc([N+](=O)[O-])cc2)CC1	200 to 2000 nM
CC(=Cc1ccccc1C(=O)OCC1CCCCN1)c1ccc(CC(C)(C)C)cc1 (stereo not shown)	20 to 200 nM

Query: Reported IC50 for cyclophilin, given CCCCOC(=O)c1ccccc1C=C(C)c1ccc(Cc2ccccc2)cc1 ?
Result: 20 to 200 nM

Query: And what about the compound N#CC(=Cc1ccccc1N)c1ccc([N+](=O)[O-])cc1 ?
Result: 200 to 2000 nM

Query: // next record CC(C)(C)Cc1ccc(C(C#N)=Cc2ccccc2C(=O)O)cc1
Result: ≤ 20 nM

----------
Molecular target: cyclophilin
Test: Cis-trans isomerase inhibitory activity (chymotrypsin-coupled Suc-AAPF-pNA cleavage, absorbance 390 nm)
Type: biochemical
Settings: cyclophilin, chymotrypsin, Suc-AAPF-pNA; read-out: Test Example 1: cis-trans isomerase inhibitory activity (IC50)
pIC50: −log10 of the molar value.
Catalogue of pIC50 values

CC(C)(C)Cc1ccc(C=Cc2cccc(N)c2C(=O)O)cc1 [Compound 137]	≥ 7.70
CC(C)CCc1ccccc1C=C(C#N)c1ccc([N+](=O)[O-])cc1 [Compound 36]	6.70 to 7.70
CC(C)OC(=O)c1ccccc1C=Cc1ccc(CC(C)(C)C)cc1 [Compound 73]	≥ 7.70
CCCCOC(=O)c1c(C=C(N)c2ccc(CC(C)(C)C)cc2)ccc(C)c1C [Compound 102]	6.70 to 7.70
CCCCOC(=O)c1c(C=Cc2ccc(CC(C)(C)C)cc2)cccc1CC [Compound 66]	6.70 to 7.70

Query: Quick one: pIC50 of CC(C)(C)Cc1ccc(C=Cc2ccccc2C(=O)OC2CCCCC2)cc1 [Compound 77] ?
Result: 6.70 to 7.70

Query: Now give it for CCCCOC(=O)c1ccccc1C=C(N)c1ccc(CC(C)CC)cc1 (stereo not shown) [Compound 108] too.
Result: 6.70 to 7.70

Query: Now consider N#CC(=Cc1ccccc1C(=O)O)c1ccc(CC2CCCCC2)cc1 [Compound 59] .
Result: ≥ 7.70

Query: And what about the compound COC(=O)c1ccccc1C=Cc1ccc(CC(C)(C)C)cc1 [Compound 124] ?
Result: ≥ 7.70

Query: Entry CCCCOC(=O)c1ccccc1C=C(C)c1ccc(CC(C)CC)cc1 (stereo not shown) [Compound 94] please
Result: 6.70 to 7.70

Query: CC(C)(C)Cc1ccc(C=Cc2ccccc2C(=O)OCC2CCCCC2)cc1 [Compound 74] , same question.
Result: ≥ 7.70

Query: Now give it for CC(C)Cc1ccccc1C=C(C#N)c1ccc([N+](=O)[O-])cc1 [Compound 34] too.
Result: 5.70 to 6.70

Query: Also check CCCCOC(=O)c1cc(C)ccc1C=C(N)c1ccc(CC(C)(C)C)cc1 [Compound 101]
Result: 6.70 to 7.70

----------
Target: cyclophilin
Test: Cis-trans isomerase inhibitory activity (chymotrypsin-coupled Suc-AAPF-pNA cleavage, absorbance 390 nm)
Format: biochemical
Conditions: cyclophilin, chymotrypsin, Suc-AAPF-pNA; read-out: Test Example 1: cis-trans isomerase inhibitory activity (IC50)
endpoint_name: IC50

CCCCc1ccc(C(C#N)=Cc2ccccc2C(=O)O)cc1	0.02 to 0.2 µM
CCCCOc1ccc(C(C#N)=Cc2ccccc2OC)cc1	0.02 to 0.2 µM
N#CC(=Cc1ccccc1CCc1ccc(N)cc1)c1ccc([N+](=O)[O-])cc1	0.02 to 0.2 µM
CCCCOC(=O)c1ccccc1C=Cc1ccc(CC(C)(C)C)cc1C	0.02 to 0.2 µM
CCC(C)Cc1ccc(C=Cc2ccccc2C(=O)OC)cc1 (centres unmarked)	0.02 to 0.2 µM
Cc1ccc(C(C#N)=Cc2ccccc2N(C)C)cc1	0.2 to 2 µM
CCCCOC(=O)c1ccccc1C=Cc1ccc(CC(C)(C)C)nc1	0.02 to 0.2 µM
CC(C)(C)Cc1ccc(C(N)=Cc2ccccc2C(=O)OCC2CCCCC2)cc1	0.02 to 0.2 µM

Query: Fill in: IC50 of CC(C)OC(=O)c1ccccc1C=C(Br)c1ccc(CC(C)(C)C)cc1 is ___
Result: ≤ 0.02 µM

Query: Would you kindly repeat that for CC(C)c1ccccc1C=C(C#N)c1ccc([N+](=O)[O-])cc1 ?
Result: 0.2 to 2 µM

Query: Then this compound: CCOc1ccc(C(C#N)=Cc2ccccc2OC)cc1
Result: 0.2 to 2 µM

----------
Molecular target: cyclophilin
Test: Cis-trans isomerase inhibitory activity (chymotrypsin-coupled Suc-AAPF-pNA cleavage, absorbance 390 nm)
Assay type: biochemical
Details: cyclophilin, chymotrypsin, Suc-AAPF-pNA; read-out: Test Example 1: cis-trans isomerase inhibitory activity (IC50)
Entries and their IC50 values follow.

Here's what some known entries look like.
CCCCOC(=O)c1c(C=Cc2ccc(CC(C)(C)C)cc2)ccc(C)c1C	20 to 200 nM
N#CC(=Cc1ccccc1CCCc1ccccc1)c1ccc([N+](=O)[O-])cc1	200 to 2000 nM
CCCCCOC(=O)c1ccccc1C=C(N)c1ccc(CC(C)(C)C)cc1	20 to 200 nM

Below: the item to evaluate.
Query: Which measured IC50 value corresponds to Cc1ccc(C(C#N)=Cc2ccccc2C(=O)O)cc1C ?
Result: 200 to 2000 nM
